FYI, the data here is from patent US8981094B2.

ENDPOINT: melting point

Can you look up the measured melting point of Cc1cc(C)c(NC(=O)N2CCN(c3ccc(NC(=O)CCCc4ccccc4)cc3)CC2)c(Cl)c1 [Compound 64] for me?
210.6 °C

Same lookup for COc1ccc(CNC(=O)c2ccc(N3CCN(C(=O)Cc4c(Cl)cccc4Cl)CC3)cc2)c(OC)c1 [Compound 230] , please.
180.99 °C

Same lookup for O=C(CCCc1ccccc1)Nc1ccc(N2CCN(C(=O)Cc3ccccc3)CC2)cc1 [Compound 338] , please.
146.12 °C

More entries:
Can you look up the measured melting point of O=C(NCc1ccncc1)c1ccc(N2CCN(C(=O)Cc3c(Cl)cccc3Cl)CC2)cc1 [Compound 251] for me?
239.51 °C

Same lookup for O=C(CCCc1ccccc1)Nc1ccc(N2CCN(C(=O)Nc3c(Cl)cc(CO)cc3Cl)CC2)cc1 [Compound 28] , please.
196.1 °C

Same lookup for O=C(CCCc1cccnc1)Nc1ccc(N2CCN(C(=O)Nc3c(Cl)cccc3Cl)CC2)cc1 [Compound 194] , please.
233 to 234 °C

Same lookup for CC(C)(C)CC(C)(C)NC(=O)N1CCN(c2ccc(NC(=O)CCCc3ccccc3)cc2)CC1 [Compound 85] , please.
202.3 °C

Same lookup for CCCc1ccccc1NC(=O)N1CCN(c2ccc(NC(=O)CCCc3ccccc3)cc2)CC1 [Compound 77] , please.
200.2 °C

Same lookup for O=C(CCNc1ccccc1Cl)Nc1ccc(N2CCN(C(=O)Nc3c(Cl)cccc3Cl)CC2)cc1 [Compound 289] , please.
244 to 245 °C

Same lookup for O=C(CCc1cccnc1)Nc1ccc(N2CCN(C(=O)Nc3c(Cl)cccc3Cl)CC2)cc1 [Compound 198] , please.
260 to 261 °C

Same lookup for O=C(CCCc1ccccc1)Nc1ccc(N2CCN(C(=O)Nc3ccc(F)cc3F)CC2)cc1 [Compound 73] , please.
141.2 °C

Same lookup for O=C(CCCc1ccccc1)Nc1ccc(N2CCN(C(=O)Nc3cc(C(F)(F)F)ccc3Cl)CC2)cc1 [Compound 81] , please.
170.3 °C

Same lookup for COc1ccccc1CNC(=O)N1CCN(c2ccc(NC(=O)CCCc3ccccc3)cc2)CC1 [Compound 71] , please.
183.1 °C

Same lookup for Cc1ccc(CNCC(=O)Nc2ccc(N3CCN(C(=O)Nc4c(Cl)cc(O)cc4Cl)CC3)cc2)c(C)c1 [Compound 311] , please.
212 to 213 °C

Same lookup for COC(=O)c1cc(Cl)c(NC(=O)N2CCC(c3ccc(NC(=O)CCCc4ccccc4)cc3)CC2)c(Cl)c1 [Compound 324] , please.
204 to 205 °C

Same lookup for O=C(CCCc1ccccc1)Nc1ccc(C2CCN(C(=O)Nc3c(Cl)cc(CO)cc3Cl)CC2)cc1 [Compound 276] , please.
198 to 199 °C

====

Sequence of the target: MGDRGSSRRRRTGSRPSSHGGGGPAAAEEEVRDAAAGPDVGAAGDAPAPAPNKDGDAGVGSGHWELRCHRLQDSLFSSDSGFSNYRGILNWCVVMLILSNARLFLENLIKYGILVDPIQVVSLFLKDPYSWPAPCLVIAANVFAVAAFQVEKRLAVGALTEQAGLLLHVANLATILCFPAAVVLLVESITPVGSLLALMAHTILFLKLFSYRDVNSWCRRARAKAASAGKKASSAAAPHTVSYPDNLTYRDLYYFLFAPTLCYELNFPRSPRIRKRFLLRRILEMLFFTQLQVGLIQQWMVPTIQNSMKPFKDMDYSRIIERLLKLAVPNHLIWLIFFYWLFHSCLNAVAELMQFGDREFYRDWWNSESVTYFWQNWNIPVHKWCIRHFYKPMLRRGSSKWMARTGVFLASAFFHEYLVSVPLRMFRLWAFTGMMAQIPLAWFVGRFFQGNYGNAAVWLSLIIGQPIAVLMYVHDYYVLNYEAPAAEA
ENDPOINT: pIC50
Convention used: pIC50 is expressed as -log10 of the molar concentration.

Can you look up the measured pIC50 of O=C(CCCc1ccccc1)Nc1ccc(N2CCN(C(=O)Nc3c(Cl)ccc4c3CCO4)CC2)cc1 for me?
6.74

More entries:
Can you look up the measured pIC50 of CC(C)c1ccccc1NC(=O)N1CCN(c2ccc(NC(=O)CCCc3ccccc3)cc2)CC1 for me?
6.23

Same lookup for Cc1cc(C)c(NC(=O)N2CCN(c3ccc(NC(=O)CCCc4ccccc4)cc3)CC2)c(C)c1 , please.
7.91

Same lookup for COc1cc(C(O)C(=O)N2CCN(c3ccc(NC(=O)CCCc4ccccc4)cc3)CC2)ccc1O (stereo not shown) , please.
5.28

====

Molecular target: UniProt:O75907
ENDPOINT: log10 IC50 (log10 of the value in nM)
// stored as log10 of IC50 expressed in nM

Can you look up the measured log10 IC50 of C#CCNC(=O)c1ccc(N2CCN(C(=O)Cc3c(Cl)cccc3Cl)CC2)cc1 for me?
3.13

Now for the molecule whose log10 IC50 we want.
Can you look up the measured log10 IC50 of CC(C)(C)CC(C)(C)NC(=O)N1CCN(c2ccc(NC(=O)CCCc3ccccc3)cc2)CC1 for me?
3.29

====

Target: human DGAT1 (Homo sapiens)
pIC50: −log10 of the molar value.
// label = true (1) if pIC50 is not less than 7, otherwise false (0)

Study these solved cases before continuing.
Reported pIC50 at or above 7? CN(CC(=O)Nc1ccc(N2CCN(C(=O)Nc3c(Cl)cccc3Cl)CC2)cc1)C(=O)Cc1ccccc1
true (1)

Same lookup for CCCCCCC(=O)Nc1ccc(N2CCN(C(=O)N(C)c3c(Cl)cccc3Cl)CC2)cc1 , please.
false (0)

Same lookup for O=C(NCc1cccc2ccccc12)c1ccc(N2CCN(C(=O)Cc3c(Cl)cccc3Cl)CC2)cc1 , please.
true (1)

More entries:
Reported pIC50 at or above 7? CCCCCCCNCC(=O)Nc1ccc(C2CCN(C(=O)Nc3c(Cl)cccc3Cl)CC2)cc1
false (0)

====

Listed below: melting point values for each entry.
Numeric answer only, unit °C assumed.

Can you look up the measured melting point of Cc1cc(Br)cc(C)c1NC(=O)N1CCN(c2ccc(NC(=O)CCCc3ccccc3)cc2)CC1 [Compound 61] for me?
241.7

More entries:
Can you look up the measured melting point of CC(c1cc(Cl)c(NC(=O)N2CCN(c3ccc(NC(=O)CCCc4ccccc4)cc3)CC2)c(Cl)c1)N1CCCCC1 (stereo not shown) [Compound 56] for me?
218

====

Listed below: melting point values for each entry.
Numeric answer only, unit °C assumed.

Solved cases (3 shown):
Can you look up the measured melting point of COc1ccc(CC(=O)Nc2ccc(N3CCN(C(=O)Nc4c(Cl)cc(CC[N+](C)(C)C)cc4Cl)CC3)cc2)cc1 [Compound 317] for me?
248.28

Same lookup for COc1ccc(CNC(=O)c2ccc(N3CCN(C(=O)Nc4c(Cl)cc(CN(C(C)C)C(C)C)cc4Cl)CC3)cc2)cc1 [Compound 240] , please.
208.87

Same lookup for O=C(CCCc1ccccc1)Nc1ccc(N2CCN(C(=O)Nc3ccccc3I)CC2)cc1 [Compound 78] , please.
153.3

Now for the compound whose melting point we want.
Can you look up the measured melting point of CCOC(=O)c1ccccc1NC(=O)N1CCN(c2ccc(NC(=O)CCCc3ccccc3)cc2)CC1 [Compound 91] for me?
194.7

====

Target: human DGAT1 (Homo sapiens)
Sequence (O75907 1-488): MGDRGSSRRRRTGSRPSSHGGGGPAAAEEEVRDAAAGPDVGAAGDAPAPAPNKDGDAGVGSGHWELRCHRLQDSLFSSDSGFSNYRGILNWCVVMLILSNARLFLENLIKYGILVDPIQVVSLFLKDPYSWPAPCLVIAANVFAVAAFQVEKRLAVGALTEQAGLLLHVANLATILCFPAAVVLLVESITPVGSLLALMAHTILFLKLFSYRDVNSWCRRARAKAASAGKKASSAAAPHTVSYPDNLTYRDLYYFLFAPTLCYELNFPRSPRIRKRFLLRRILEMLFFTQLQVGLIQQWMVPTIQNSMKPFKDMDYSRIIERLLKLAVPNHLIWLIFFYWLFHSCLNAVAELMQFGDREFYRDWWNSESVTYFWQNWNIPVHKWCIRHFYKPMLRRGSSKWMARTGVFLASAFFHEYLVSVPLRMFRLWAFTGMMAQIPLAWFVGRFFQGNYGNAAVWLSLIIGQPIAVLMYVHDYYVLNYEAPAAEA
ENDPOINT: IC50 (nM)
Numeric answer only, unit nM assumed.

Can you look up the measured IC50 of CC(C)(C)OC(=O)NC1(C(=O)Nc2ccc(C3CCN(C(=O)Nc4c(Cl)cccc4Cl)CC3)cc2)CCCC1 for me?
34.7

Same lookup for C=CCN(CCC(=O)Nc1ccc(N2CCN(C(=O)Nc3c(Cl)cccc3Cl)CC2)cc1)c1ccc(C)cc1C , please.
12.6

Same lookup for CC(NC(=O)c1ccc(N2CCN(C(=O)Cc3c(Cl)cccc3Cl)CC2)cc1)c1ccc(F)cc1 (stereo not shown) , please.
174

Now for the compound whose IC50 we want.
Can you look up the measured IC50 of CC(C)(C)OC(=O)N1CCCC1CC(=O)Nc1ccc(C2CCN(C(=O)Nc3c(Cl)cccc3Cl)CC2)cc1 (stereo not shown) for me?
17
